- EXPERIMENT SUMMARY: Cell viability, MTT assay
- Format: cell-based, mouse
- CONDITIONS USED: mouse, cell viability
MEASUREMENT TYPE: viability at 20 h

Memo: CC(C)c1cc2c(c(O)c1O)[C@@]1(C)CCC(=O)C(C)(C)C1[C@@H](O)[C@H]2O (stereo partly drawn) [Compound 3, 6α,7α,11-trihydroxy-3-oxoferrugiol] , reported viability at 20 h: > 80%

* * *

- Test system: LPS-activated NO production in RAW 264.7 macrophages
- EXPERIMENT SUMMARY: Inhibition of LPS-induced NO production (nitrite, Griess reagent assay)
- Type: cell-based, mouse
- CONDITIONS USED: Mus musculus, RAW264.7; RAW 264.7 macrophages, 1 μg/mL LPS, 20 h; mean ± SEM (n = 4) of 3 independent experiments; read-out: IC50 NO
The following compounds are listed with their measured pIC50 values.
Keep in mind that pIC50 stands for -log10 of concentration in molar terms.

See these solved cases before continuing.
* CC(C)=CCCC1(C)C=Cc2cc(-c3ccc(O)cc3)cc(O)c2O1 (stereo not drawn) [Compound 8, amycolataiwanensin H] | 4.75
* COc1cc(CCCOC(C)=O)cc(OC)c1O [Compound 7, amycolataiwanensin G] | 4.89
* CC1(C)CCc2cc(-c3ccc(O)cc3)cc(O)c2O1 [Compound 9] | 4.88
* CC(=O)OCC(C)(O)C1CCC(C)C12CC=C(C)CC2 (stereo not drawn) [Compound 2, 12-acetoxy-11-hydroxyacora-3-ene] | 4.47
* CC(C)C1=C(O)C(=O)C2=C(CCC3C(C)(C)[C@@H](O)CC[C@]23C)C1=O (stereo partly drawn) [Compound 4, amycolataiwanensin D] | 4.61
* O=c1c(O)c(-c2ccc(O)c(O)c2)oc2cc(O)cc(O)c12 [Quercetin, quercetin, reference compound] | 4.44

Memo: CC1(C)CCC2C(=CC1=O)CCC1C(C)(C(=O)O)CCCC21C (stereo not drawn) [Compound 6] , reported pIC50: 4.61

Memo: CC(O)c1ccc2c(c1)CCC1[C@](C)(C(=O)O)CCC[C@]21C (relative stereo) [Compound 5] , reported pIC50: 4.91

* * *

The following compounds are listed with their measured viability at 20 h values.
- EXPERIMENT SUMMARY: Cell viability, MTT assay
- Format: cell-based, mouse
- Design: concentration or dose not given beside the values
- CONDITIONS USED: mouse, RAW 264.7 macrophage cells, RAW 264.7, MTT assay; read-out: cell viability

- CC1(C)CCc2cc(-c3ccc(O)cc3)cc(O)c2O1: > 80%
- CC1(C)CCC2C(=CC1=O)CCC1C(C)(C(=O)O)CCCC21C (centres unmarked): < 80%
- CC(O)c1ccc2c(c1)CCC1[C@](C)(C(=O)O)CCC[C@]21C (relative stereo): > 80%

Memo: CC(C)=CCCC1(C)C=Cc2cc(-c3ccc(O)cc3)cc(O)c2O1 (centres unmarked) , reported viability at 20 h: > 80%

Memo: COc1cc(CCCOC(C)=O)cc(OC)c1O , reported viability at 20 h: < 80%

* * *

- EXPERIMENT SUMMARY: Cell viability, MTT assay
- Type: cell-based, mouse
- Parameters: concentration or dose not given beside the values
- CONDITIONS USED: mouse, RAW 264.7 macrophage cells, RAW 264.7 macrophages, MTT assay; mean ± SEM; read-out: Cell Viability (% Control)
The following compounds are listed with their measured viability at 20 h values.
Numeric only. Scale: %

See these solved cases before continuing.
• CC(C)=CCCC1(C)C=Cc2cc(-c3ccc(O)cc3)cc(O)c2O1 (stereo not drawn) = 95.9
• COc1cc(CCCOC(C)=O)cc(OC)c1O = 56.3
• CC(=O)OCC(C)(O)C1CCC(C)C12CC=C(C)CC2 (stereo not drawn) [Compound 2, 12-acetoxy-11-hydroxyacora-3-ene] = 99.6

Memo: CC1(C)CCC2C(=CC1=O)CCC1C(C)(C(=O)O)CCCC21C (stereo not drawn) , reported viability at 20 h: 76.3

Memo: C[C@@H]1[C@@H](O)CC2C(C)(C)C3CC21CC[C@@]3(C)O (relative stereo) , reported viability at 20 h: 89.5

Memo: CC1(C)CCc2cc(-c3ccc(O)cc3)cc(O)c2O1 , reported viability at 20 h: 98
